Target: human recombinant MAGL (Homo sapiens (Human), UniProt Q99685)
Sequence (Q99685 whole entry): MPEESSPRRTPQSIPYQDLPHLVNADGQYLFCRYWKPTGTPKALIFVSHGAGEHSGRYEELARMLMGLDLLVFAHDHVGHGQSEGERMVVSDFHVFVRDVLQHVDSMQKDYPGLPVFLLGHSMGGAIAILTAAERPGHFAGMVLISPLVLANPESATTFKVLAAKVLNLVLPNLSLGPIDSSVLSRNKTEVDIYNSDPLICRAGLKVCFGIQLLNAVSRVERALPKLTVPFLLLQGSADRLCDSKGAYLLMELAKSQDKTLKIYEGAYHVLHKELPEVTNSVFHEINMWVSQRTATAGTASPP
Assay: In vitro inhibition of MAGL activity (inhibitor screening kit, 4-nitrophenylacetate)
Settings: human recombinant MAGL
Text: The inhibitory effect of the compounds on activity of human recombinant MAGL was also studied using a commercial inhibitor screening kit (Cayman Chemicals). In brief, MAGL hydrolyzes 4-nitrophenylacetate resulting in a yellow product, 4-nitrophenol with an absorbance at 405-412 nm, while the inhibitor will inhibit the MAGL activity and thus reduce the yellow signal. The absorbance of the yellow product can be analyzed using the plate reader. […]
The entries below come with measured IC50 values attached.

// below: answered molecules
SMILES TEXT | IC50
Cc1cc(OC(=O)NC2CCCCCCC2)cc(-c2cncc(-c3ncco3)c2)c1 | ~10 µM
O=C(NCC1CCCCC1)Oc1cccc(-c2cc(-c3nnco3)ccn2)c1 | > 10 µM
CCCCCCCCNC(=O)Oc1ccc(OC)c(-c2cncc(-c3nccs3)c2)c1 | ~10 µM

Here's the next entry for you.
## Input Give IC50 for `COc1cc(OC(=O)NCc2ccccc2)cc(-c2cncc(-c3nnco3)c2)c1` tested on human recombinant MAGL (Homo sapiens (Human), UniProt Q99685).
## Output > 10 µM

---

target: human recombinant FAAH (Homo sapiens (Human), UniProt O00519); assay: In vitro inhibition of FAAH activity (fluorescent inhibitor screening kit, AMC arachidonoyl amide); type: biochemical; conditions: human recombinant FAAH; read-out: Inhibition on FAAH activity (IC50)
Sequence (O00519 whole entry): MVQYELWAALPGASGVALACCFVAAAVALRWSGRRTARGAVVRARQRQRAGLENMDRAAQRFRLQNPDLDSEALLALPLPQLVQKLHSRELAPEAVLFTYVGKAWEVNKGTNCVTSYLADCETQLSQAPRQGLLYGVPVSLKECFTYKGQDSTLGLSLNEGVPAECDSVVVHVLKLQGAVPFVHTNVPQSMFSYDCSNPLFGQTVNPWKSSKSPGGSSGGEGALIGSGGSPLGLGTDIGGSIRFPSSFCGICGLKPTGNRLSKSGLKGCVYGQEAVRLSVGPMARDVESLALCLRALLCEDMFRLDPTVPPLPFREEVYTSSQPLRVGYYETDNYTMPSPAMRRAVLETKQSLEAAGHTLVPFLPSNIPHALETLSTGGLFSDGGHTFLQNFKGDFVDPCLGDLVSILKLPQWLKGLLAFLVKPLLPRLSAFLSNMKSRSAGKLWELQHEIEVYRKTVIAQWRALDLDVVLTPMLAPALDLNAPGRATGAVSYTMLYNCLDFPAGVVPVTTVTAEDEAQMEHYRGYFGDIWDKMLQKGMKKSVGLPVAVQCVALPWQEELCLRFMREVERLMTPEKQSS
# IC50 values compiled below

COMPOUND | IC50
O=C(NC1CCCCC1)Oc1ccc(O)c(-c2cncc(-c3ncn[nH]3)c2)c1 | 100 to 1000 nM
CSc1ccc(OC(=O)NCC2CCCCC2)cc1-c1cncc(-c2nnco2)c1 | 100 to 1000 nM
CCCCCCCCNC(=O)Oc1cccc(-c2cncc(-c3ncco3)c2)c1 | 1 to 10 nM
O=C(NC1CC2(CCC2)C1)Oc1cccc(-c2cncc(-c3nnco3)c2)c1 | 10 to 100 nM
Cc1cc(OC(=O)NC2CCCCC2)cc(-c2cncc(-c3ncco3)c2)c1 | > 1000 nM
O=C(NC1CCCCCC1)Oc1cccc(-c2cncc(-c3ncno3)c2)c1 | 10 to 100 nM
CCCCCCCCNC(=O)Oc1ccc(O)c(-c2cncc(-c3nnco3)c2)c1 | 1 to 10 nM
O=C(NC1CCCC1)Oc1cc(O)cc(-c2cncc(-c3nnco3)c2)c1 | 10 to 100 nM

## Input Kindly indicate its recorded IC50. Item: `O=C(NC1CCCC1)Oc1cccc(-c2cncc(-c3ccno3)c2)c1`
## Output 10 to 100 nM

## Input For `O=C(NC1CCCC1)Oc1cccc(-c2cncc(-c3nnn[nH]3)c2)c1` , write its IC50.
## Output > 1000 nM

## Input Give the reported value of IC50 for this record: `COc1ccc(OC(=O)NC2CCCCC2)cc1-c1cncc(-c2ncn[nH]2)c1`
## Output 100 to 1000 nM

## Input Consider the compound `CCCCCCCCNC(=O)Oc1ccc(OC)c(-c2cncc(-c3nncs3)c2)c1` . State its measured IC50.
## Output 1 to 10 nM

## Input Name the recorded IC50 of the compound listed here: `COc1ccc(OC(=O)NC2CCCCCC2)cc1-c1cncc(-c2cccs2)c1`
## Output 100 to 1000 nM

## Input Quickly give me recorded IC50 for `O=C(NC1CCCCCC1)Oc1ccc(F)c(-c2cncc(-c3ncco3)c2)c1`
## Output 23.9 nM

## Input Quick one: give measured IC50 for `O=C(NCC1CCCCC1)Oc1cccc(-c2cncc(-c3nnn[nH]3)c2)c1`
## Output > 1000 nM

## Input Tell us which IC50 value is on record for `COc1ccc(OC(=O)NC2CCCCCC2)cc1-c1cncc(-c2ccc[nH]2)c1`
## Output 100 to 1000 nM

## Input Return reported IC50. Input compound: `O=C(NC1CCCC1)Oc1cccc(-c2cncc(-c3nnco3)n2)c1`
## Output 10 to 100 nM

## Input Respond only with IC50 recorded for `O=C(NC1CCCCCC1)Oc1cccc(-c2cncc(C(F)(F)F)c2)c1`
## Output 100 to 1000 nM

## Input Annotate the compound `CCCCCCCNC(=O)Oc1cccc(-c2cncc(C(=O)NO)c2)c1` with its measured IC50.
## Output 10 to 1000 nM

## Input Please list IC50 recorded for the compound `CSc1ccc(OC(=O)NC2CCCCCC2)cc1-c1cncc(-c2nnco2)c1`
## Output 153 nM

## Input Let me know recorded IC50 for `O=C(NC1CCCC1)Oc1ccc(F)c(-c2cncc(-c3ncco3)c2)c1` , thanks.
## Output 10 to 100 nM

## Input State its IC50: `CCCCCCCCNC(=O)Oc1cccc(-c2cncc(C=O)c2)c1`
## Output 10 to 100 nM

## Input Determine from records and report IC50 for `COc1ccc(OC(=O)NCc2ccccc2)cc1-c1cncc(-c2ncn[nH]2)c1`
## Output > 1000 nM

## Input Recall and state the measured IC50 for `O=C(NC1CCCC1)Oc1cccc(-c2cncc(-c3nncs3)c2)c1` .
## Output ~100 nM

---

Consider the following compounds and their measured half-life readings.
test: Pharmacokinetic study in rats, IV and oral gavage, with brain penetration; type: in vivo, rat; conditions: Sprague Dawley, plasma; rat (SD, male), IV 1.0 mg/kg; read-out: t1/2 (h), IV (converted)
# value in h; strip the unit string

COMPOUND | half-life / h
O=C(NC1CCCCC1)Oc1ccc(O)c(-c2cncc(-c3nnco3)c2)c1 [Example 158] | 0.31

Okay, now this compound:
## Input Respond only with half-life recorded for COc1ccc(OC(=O)NC2CCCCCC2)cc1-c1cncc(-c2nnco2)c1 [Example 172]
## Output 0.8

---

Catalogue of pIC50 values
biological target: human recombinant MAGL (Homo sapiens (Human)); test: In vitro inhibition of MAGL activity (inhibitor screening kit, 4-nitrophenylacetate); details: human recombinant MAGL
pIC50: −log10 of the molar value.

SMILES TEXT | ENDPOINT NAME | REPORTED VALUE
CCCCCNC(=O)Oc1cccc(-c2cncc(-c3ncco3)c2)c1 | pIC50 | < 5.00

## Input Determine reported pIC50 for `COc1ccc(OC(=O)NC2CCCC2)cc1-c1cncc(-c2nncs2)c1` ; test system: human recombinant MAGL (Homo sapiens (Human)).
## Output < 5.00

## Input Enter measured pIC50, system human recombinant MAGL (Homo sapiens (Human)), for the compound shown: `COc1ccc(OC(=O)NC2CCCCCC2)cc1-c1cncc(-c2nnn[nH]2)c1`
## Output < 5.00

---

molecular target: human recombinant MAGL (Homo sapiens (Human)); experiment: In vitro inhibition of MAGL activity (inhibitor screening kit, 4-nitrophenylacetate); format: biochemical; conditions: human recombinant MAGL
Recorded IC50 by entry

## Input Identify IC50 associated with the compound CCCCCCCCNC(=O)Oc1cccc(-c2cncc(-c3nccs3)c2)c1 [Example 115]
## Output ~10 µM

## Input Fill in reported IC50 for this entry: O=C(NC1CCCC1)Oc1cccc(-c2cncc(-c3nncs3)c2)c1 [Example 210]
## Output > 10 µM

## Input Output IC50 of CCCCCCCCNC(=O)Oc1ccc(OC)c(-c2cncc(-c3ccco3)c2)c1 [Example 53]
## Output ~10 µM

## Input Supply recorded IC50 for CSc1ccc(OC(=O)NC2CCCCC2)cc1-c1cncc(-c2nnco2)c1 [Example 190] here.
## Output > 10 µM

## Input Answer with the recorded IC50 for the compound listed here: COc1ccc(OC(=O)NCC2CCCCC2)cc1-c1cncc(-c2cccs2)c1 [Example 66]
## Output ~10 µM

## Input Supply reported IC50 belonging to this compound: O=C(NC1CCCC1)Oc1cccc(-c2cncc(C(F)(F)F)c2)c1 [Example 32]
## Output > 10 µM

## Input For the compound COc1ccc(OC(=O)NC2CCCCC2)cc1-c1cncc(-c2ccco2)c1 [Example 57] , give its reported IC50.
## Output > 10 µM

---

molecular target: human recombinant FAAH (Homo sapiens (Human), UniProt O00519); experiment: In vitro inhibition of FAAH activity (fluorescent inhibitor screening kit, AMC arachidonoyl amide); format: biochemical; conditions: FAAH; values as listed in Table 5; read-out: IC50
ENDPOINT NAME: IC50 (nM)
Lab book: enter the figure in nM, no units written.

Worked set:
COMPOUND | TEST SYSTEM | IC50 (nM)
O=C(NC1CCCCCC1)Oc1ccc(O)c(-c2cncc(-c3ncn[nH]3)c2)c1 [Example 231] | human recombinant FAAH (Homo sapiens (Human), UniProt O00519) | 137
O=C(Oc1cccc(-c2cncc(-c3nnco3)c2)c1)N1CC2(CCC2)C1 [Example 146] | human recombinant FAAH (Homo sapiens (Human), UniProt O00519) | 401
O=C(NC1CCCCCC1)Oc1ccc(F)c(-c2cncc(-c3nnco3)c2)c1 [Example 194] | human recombinant FAAH (Homo sapiens (Human), UniProt O00519) | 49.1

## Input Quick one: give measured IC50 for O=C(NC1CCCCCC1)Oc1cccc(-c2cncc(-c3ncn[nH]3)c2)c1 [Example 225]
## Output 176

## Input State, in one line, measured IC50 of CSc1ccc(OC(=O)NC2CCCCCC2)cc1-c1cncc(-c2nnco2)c1 [Example 191]
## Output 153

## Input Name the recorded IC50 of the item COc1ccc(OC(=O)NC2CCCCCC2)cc1-c1cncc(-c2nnco2)c1 [Example 172] in your answer.
## Output 112

## Input Give the reported IC50 for this compound. O=C(NC1CCCCC1)Oc1ccc(O)c(-c2cncc(-c3nnco3)c2)c1 [Example 158]
## Output 127

## Input State its IC50 for this compound: O=C(NC1CCCCC1)Oc1cccc(-c2cncc(-c3ccco3)c2)c1 [Example 51]
## Output 76.1
